Every entry's value here was drawn from paper PMC8052502.

MEASUREMENT TARGET: T1, ScpA_(S512A), active site serine to alanine mutant of recombinant Streptococcal C5a peptidase ScpA, residues … (Streptococcus pyogenes, UniProt P15926 31-1032, S512A)
T1 construct: mimics the form released from the cell surface by SpeB; catalytic residues D130, H193, S512; also called S512A active site mutant of ScpA; source: recombinant, from plasmid pGEX ScpA_((31-1032)) mutated with QuickChange II; purified
T1 sequence: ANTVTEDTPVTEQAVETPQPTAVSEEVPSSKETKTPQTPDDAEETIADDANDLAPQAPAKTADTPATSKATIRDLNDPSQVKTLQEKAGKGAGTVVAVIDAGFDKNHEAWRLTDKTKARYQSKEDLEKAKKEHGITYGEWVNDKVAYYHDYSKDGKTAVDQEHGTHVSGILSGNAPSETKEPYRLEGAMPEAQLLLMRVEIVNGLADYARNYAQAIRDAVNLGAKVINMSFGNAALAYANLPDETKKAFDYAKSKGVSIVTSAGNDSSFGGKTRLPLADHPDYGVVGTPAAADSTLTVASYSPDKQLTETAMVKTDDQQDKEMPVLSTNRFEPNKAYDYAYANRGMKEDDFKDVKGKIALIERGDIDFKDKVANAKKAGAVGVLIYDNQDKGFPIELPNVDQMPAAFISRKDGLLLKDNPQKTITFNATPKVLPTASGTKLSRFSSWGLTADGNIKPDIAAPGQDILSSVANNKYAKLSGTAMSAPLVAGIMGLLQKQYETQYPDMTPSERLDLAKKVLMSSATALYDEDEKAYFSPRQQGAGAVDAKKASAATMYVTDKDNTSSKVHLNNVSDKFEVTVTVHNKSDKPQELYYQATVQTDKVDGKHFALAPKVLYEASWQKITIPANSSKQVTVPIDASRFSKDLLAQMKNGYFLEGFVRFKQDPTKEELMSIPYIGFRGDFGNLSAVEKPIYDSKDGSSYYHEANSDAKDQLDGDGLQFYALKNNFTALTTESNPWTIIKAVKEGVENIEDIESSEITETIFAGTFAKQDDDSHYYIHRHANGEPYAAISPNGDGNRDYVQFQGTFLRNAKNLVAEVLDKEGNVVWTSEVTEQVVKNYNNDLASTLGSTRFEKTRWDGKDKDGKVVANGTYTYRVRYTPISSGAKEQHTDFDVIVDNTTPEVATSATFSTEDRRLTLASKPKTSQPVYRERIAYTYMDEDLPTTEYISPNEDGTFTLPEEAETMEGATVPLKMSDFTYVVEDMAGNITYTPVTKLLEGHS
ASSAY PROTOCOL: SPR; His-tagged rhC5a immobilised on NTA sensor chip, ScpA_(S512A) flowed over; 25 °C; Hepes buffer with 350 mM NaCl; 1:1 Langmuir model
CONDITION SUMMARY: both partners purified
MEASURED PROPERTY: Kd (nM)

BINDER: recombinant human C5a, N-ter hexa-histidine tagged (rhC5a) (natural protein, UniProt P01031 678-751, looked up, β-mercaptoethanol added to C27 in the refolding process, numbers count on: the mature C5a (1-74); His-tagged form immobilised on the NTA chip in SPR; also called full length rhC5a; not shown: His6, N-terminal, kept) TLQKKIEEIAAKYKHSVVKKCCYDGACVNNDETCEQRAARISLGPRCIKAFTECCVVASQLRANISHKDMQLGR
UNIT TAG: nM
READOUT NUMBER: 63.5
